Experiment: qHTS for Inhibitors of Plasmodium falciparum (HB3) proliferation (AID 504318); note: nearly all actives have a fitted effect of over 60% in size
Details: P. falciparum HB3 in erythrocytes, SYBR Green DNA, 72 h; series mostly up to 7.21 µM
Results filed as inconclusive are left out. The source made the active and inactive calls. Calls come from the whole dose curve; as a rule, active = well fitted inhibition curve with a large enough effect; inconclusive = small, poorly fitted or top-dose-only effect; inactive = flat fitted curve, though single readings scatter.
Use one of these outcomes when replying: true (1) for active, false (0) for inactive

Record request — test call for CCCNC(=O)N1C2=NC(C(=O)OC)=C(C(=O)OC)[C@@H]3N(C)c4ccc(OC)cc4[C@]23C[C@H]1C(=O)OC
true (1)

Record request — test call for COC(=O)C1=C(C)N(Cc2ccco2)C(=O)NC1c1ccco1 (stereo unspecified)
false (0)

Record request — test call for CCOC(=O)C1=CN(CCc2cn(Cc3ccccc3)nn2)C(=O)NC1c1ccccc1 (stereo unspecified)
false (0)
